assay protocol: NCI Yeast Anticancer Drug Screen. Data for the wt2 strain (AID 169);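 further: 0% = growth of vehicle-treated yeast cultures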
condition details: S. cerevisiae wt2 strain growth inhibition; at 100.0 µM; stronger effect = higher value
About 79,000 compounds went through this panel and 15% of them were active in at least one assay; those are over-represented in the sample as a whole.
Outcome label depends on growth inhibition relative to 30%: at/above gives 1, below gives 0.

Here are 5 compounds together with their reported answers.
c1ccc2cc(OCC3CO3)c(OCC3CO3)cc2c1 (configuration not stated); 0
O=C(CSS(=O)(=O)O)c1ccccc1; 0
c1cc(Nc2ccc3c(c2)OCO3)c2cc(C3CCCCC3)ccc2n1; 1
CCOc1ccc2ccc3cccnc3c2n1; 1
N=c1oc2ccccc2cc1-c1nc2ccccc2[nH]1; 1

growth inhibition >= 30% for Cc1ccnc(NS(=O)(=O)c2ccc(Nc3c4ccccc4nc4ccccc34)cc2)n1 ?
1

growth inhibition >= 30% for CC(O)CN1C(=O)c2cccc3cc([N+](=O)[O-])cc(c23)C1=O (configuration not stated) ?
0

growth inhibition >= 30% for O=C1c2ccccc2-c2ccc(NC(=O)C3CCCCC3C(=O)O)cc21 (configuration not stated) ?
1

growth inhibition >= 30% for O=C(CCC(=O)c1ccc(O)cc1)Oc1ccc(O)cc1 ?
0

growth inhibition >= 30% for OC1C#CCSCC#C/C=C\1 (configuration not stated) ?
1

growth inhibition >= 30% for O=c1oc(C(C(F)(F)F)C(F)(F)F)nc2ccccc12 ?
1

growth inhibition >= 30% for COc1ccc(C(=O)NCCN(C)C)c2nc3ccccc3cc12 ?
1
